- testName: solubility in physiological saline
- Type: physicochemical
- experimentalParameters: methanesulfonate; medium not printed at the place
measuredEndpoint: solubility (µg/mL)
The reply should be a number in µg/mL, with the unit left off.

QUERY: Give the reported value of solubility for this record: "CCOC(=O)[C@@H](N)CC(=O)OCC(=O)O[C@@H](C(=O)O[C@H]1C[C@@]2(O)[C@@H](OC(=O)c3ccccc3)[C@@H]3[C@]4(OC(C)=O)CO[C@@H]4C[C@H](O)[C@@]3(C)C(=O)[C@H](O)C(=C1C)C2(C)C)[C@@H](NC(=O)OC(C)(C)C)c1ccccc1"
RESULT: 5000

QUERY: Return solubility (reported value) for this compound: "COCCOC(=O)[C@@H](N)CC(=O)OCC(=O)O[C@@H](C(=O)O[C@H]1C[C@@]2(O)[C@@H](OC(=O)c3ccccc3)[C@@H]3[C@]4(OC(C)=O)CO[C@@H]4C[C@H](O)[C@@]3(C)C(=O)[C@H](O)C(=C1C)C2(C)C)[C@@H](NC(=O)OC(C)(C)C)c1ccccc1"
RESULT: 10000
